TARGET OF ASSAY: HPRT1 (Homo sapiens)
Sequence (P00492 2-218): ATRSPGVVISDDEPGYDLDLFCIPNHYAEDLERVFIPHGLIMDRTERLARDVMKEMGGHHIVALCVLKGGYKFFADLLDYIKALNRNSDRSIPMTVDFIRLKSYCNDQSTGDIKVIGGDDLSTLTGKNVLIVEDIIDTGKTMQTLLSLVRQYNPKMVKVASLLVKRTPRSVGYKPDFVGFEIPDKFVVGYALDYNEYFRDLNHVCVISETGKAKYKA
PROPERTY: pIC50
Lab note: report pIC50 as minus log10 of the concentration in molar units, number only.

Prompt: I would be grateful if you could share the reported pIC50 for O=c1[nH]cnc2nc[nH]c12 [HX, hypoxanthine] .
Response: 5.11
